Values compiled from ChEMBL document CHEMBL3880421.

Entries and their measured inhibition at 0.01 µM follow.
Experiment: Antiproliferative activity against VEGF-stimulated HUVEC cells assessed as reduction in cell viability at 10 nM preincubated for 1 hr followed by addition of VEGF measured after 72 hrs by MTT assay
Format: functional
Details: Homo sapiens

| Compound | inhibition at 0.01 µM [%] |
| --- | --- |
| Cc1cc(C(=O)Nc2cccc(Nc3ccc4c(/C=C/c5ccccc5)n[nH]c4c3)c2)c(C)[nH]1 | 76 |
| COc1ccccc1/C=C/C(=O)Nc1cccc(C(=O)c2ccc3c(/C=C/c4ccccc4)n[nH]c3c2)c1 | 47 |
| CC(C)CC(=O)C(=O)Nc1cccc(Oc2ccc3c(/C=C/c4ccccc4)n[nH]c3c2)c1 | 64 |
| CC(C)C(=O)Nc1cccc(Oc2ccc3c(/C=C/c4ccccc4)n[nH]c3c2)c1 | 57 |
| COc1cccc(CC(=O)Nc2cccc(C(=O)c3ccc4c(/C=C/c5ccccc5)n[nH]c4c3)c2)c1 | 87 |
| COC1CCCC(C(=O)Nc2cccc(Oc3ccc4c(/C=C/c5ccccc5)n[nH]c4c3)c2)C1 (stereo not given) | 91 |
| CC1(C)C(C(=O)Nc2cccc(Nc3ccc4c(/C=C/c5ccccc5)n[nH]c4c3)c2)C1(C)C | 25 |
| CC(C)[C@@H](O)C(=O)Nc1cccc(Oc2ccc3c(/C=C/c4ccccc4)n[nH]c3c2)c1 | 32 |
| O=C(/C=C/C(=O)Nc1cccc(Oc2ccc3c(/C=C/c4ccccc4)n[nH]c3c2)c1)NCC1CC1 | 36 |
| O=C(Cc1ccccc1)C(=O)Nc1cccc(Nc2ccc3c(/C=C/c4ccccc4)n[nH]c3c2)c1 | 11 |
| COc1cccc(CC(=O)Nc2cccc(Oc3ccc4c(/C=C/c5ccccc5)n[nH]c4c3)c2)c1 | 86 |
| CN1CC(C(=O)Nc2cccc(Oc3ccc4c(/C=C/c5ccccc5)n[nH]c4c3)c2)CC1=O (stereo not given) | 24 |
| Cc1cc(C(=O)Nc2cccc(Nc3ccc4c(/C=C/c5ccccc5)n[nH]c4c3)c2)no1 | 6 |
| CC1CC1C(=O)Nc1cccc(C(=O)c2ccc3c(/C=C/c4ccccc4)n[nH]c3c2)c1 (stereo not given) | 96 |
| O=C(CCN1CCCCC1)Nc1cccc(Oc2ccc3c(/C=C/c4ccccc4)n[nH]c3c2)c1 | 52 |
| O=C(Cc1c(F)cccc1F)Nc1cccc(Nc2ccc3c(/C=C/c4ccccc4)n[nH]c3c2)c1 | 40 |
| O=C(c1cccc(NC(=O)c2cc(=O)cco2)c1)c1ccc2c(/C=C/c3ccccc3)n[nH]c2c1 | -13 |
| Cc1cc(C(=O)Nc2cccc(Nc3ccc4c(/C=C/c5ccccc5)n[nH]c4c3)c2)n[nH]1 | 86 |
| O=C(Nc1cccc(Oc2ccc3c(/C=C/c4ccccc4)n[nH]c3c2)c1)C(O)c1ccccc1 (stereo not given) | 56 |
| CO[C@H](C(=O)Nc1cccc(Oc2ccc3c(/C=C/c4ccccc4)n[nH]c3c2)c1)c1ccccc1 | 30 |
| CC(C)CC(=O)C(=O)Nc1cccc(C(=O)c2ccc3c(/C=C/c4ccccc4)n[nH]c3c2)c1 | 81 |
| Cc1cc(C(=O)Nc2cccc(Oc3ccc4c(/C=C/c5ccccc5)n[nH]c4c3)c2)c(C)[nH]1 | 52 |
| C[C@@H]1[C@H](C)[C@H](C)C[C@@H]1C(=O)Nc1cccc(C(=O)c2ccc3c(/C=C/c4ccccc4)n[nH]c3c2)c1 | 5 |
| O=C(CC1=CCCCC1)Nc1cccc(Nc2ccc3c(/C=C/c4ccccc4)n[nH]c3c2)c1 | 81 |
| CN(C)CCCC(=O)Nc1cccc(C(=O)c2ccc3c(/C=C/c4ccccc4)n[nH]c3c2)c1 | 24 |
| O=C(Nc1cccc(Oc2ccc3c(/C=C/c4ccccc4)n[nH]c3c2)c1)C1CCOC1 (stereo not given) | 40 |
| CCCN(CCC)CC(=O)Nc1cccc(Nc2ccc3c(/C=C/c4ccccc4)n[nH]c3c2)c1 | 17 |
| O=C(CC1=CCCCC1)Nc1cccc(Oc2ccc3c(/C=C/c4ccccc4)n[nH]c3c2)c1 | 92 |
| COc1ccccc1/C=C/C(=O)Nc1cccc(Oc2ccc3c(/C=C/c4ccccc4)n[nH]c3c2)c1 | 17 |
| CN1CC(C(=O)Nc2cccc(Nc3ccc4c(/C=C/c5ccccc5)n[nH]c4c3)c2)CC1=O (stereo not given) | 20 |
| CC(=O)N1CCC[C@@H]1C(=O)Nc1cccc(Oc2ccc3c(/C=C/c4ccccc4)n[nH]c3c2)c1 | 20 |
| CC(C)c1ccccc1C(=O)Nc1cccc(Oc2ccc3c(/C=C/c4ccccc4)n[nH]c3c2)c1 | 35 |
| CCC(C(=O)Nc1cccc(C(=O)c2ccc3c(/C=C/c4ccccc4)n[nH]c3c2)c1)c1ccccc1C (stereo not given) | 3 |
| O=C(Nc1cccc(Oc2ccc3c(/C=C/c4ccccc4)n[nH]c3c2)c1)c1cc(=O)[nH]c(=O)[nH]1 | 90 |
| C[C@@H](CC(=O)Nc1cccc(Nc2ccc3c(/C=C/c4ccccc4)n[nH]c3c2)c1)c1ccccc1 | 27 |
